Just for reference, patent US20190263922A1 is where these values come from.

Biological target: T1, human CD20 (human, UniProt P11836 1-297)
T1 construct: whole, on cells; Always presented on cells; also called MS4A1; CD20 WT
T1 sequence (looked up): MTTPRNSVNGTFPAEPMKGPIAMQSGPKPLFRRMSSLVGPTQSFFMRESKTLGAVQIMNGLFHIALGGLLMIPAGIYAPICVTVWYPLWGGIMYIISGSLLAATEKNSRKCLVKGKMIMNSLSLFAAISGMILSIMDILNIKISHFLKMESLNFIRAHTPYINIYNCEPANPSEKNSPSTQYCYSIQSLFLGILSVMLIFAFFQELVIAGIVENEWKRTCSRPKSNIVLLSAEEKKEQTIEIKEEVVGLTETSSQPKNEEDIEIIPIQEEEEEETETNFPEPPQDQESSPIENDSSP
Experiment: LigandTracer Green, 10 nM FITC-labeled mAb on SKBR3-CD20 cells, OneToOne fit, non-competitive dissociation

| BINDER | kon / M⁻¹ s⁻¹ |
| --- | --- |
| m1 (mIgG2c-CD20 mAb) (antibody, V domains shown, FITC- or Alexa647-labelled in the kinetic assays; label sites not given, Mouse IgG2c hybridoma mAb; FITC- or Alexa647-labeled in the kinetic assays) VH: QAYLQQSGAELVRPGASVKMSCKASGYTFTSYNLHWVKQTPRQGLEWIGAIYPGNGDTSYNQKFKGKATLTVDKSSSTAYMQLSRLTSEDSAVYFCARSNSYGSTYWYFDVWGTGTTVTVSS VL: QIVLSQSPAVLFASPGEKVTMTCRARSSVSYMDWYQQKPRSSPKPWIYATSNLASGVPARFSGSGSGTSYSLTISRVEAEDAATYYCQQWTSNPPTFGSGTKLEIK | 37300 |
| m10 (mIgG2c-CD20 mAb) (antibody, V domains shown, FITC-labelled in the LigandTracer assay; label sites not given, Mouse IgG2c hybridoma mAb; FITC-labeled in LigandTracer) VH: QAYLQQSGADLVRPGASVKMSCKASGFTFPSYNLHWVKQTPRQGLEWIGAIYPGNGDTSYNQKFKGKATLTVDKSSSTAYMQLSSLTSEDSAVYFCARSAYYGSNVWFFDVWGTGTTVTVSS VL: QIVLSQSPAILSASPGEKVTMTCRASSSVSYMDWYQQKPGSSPKPWIYATSNLASGVPTRFSGSGSGTSYSLTISRVEAEDAATYYCQQWISNPPTFGAGTKLDLK | 44200 |
| m9 (mIgG2c-CD20 mAb) (antibody, V domains shown, FITC-labelled antibody in the LigandTracer assay; the label positions are not defined., Mouse IgG2c hybridoma mAb; FITC-labeled in LigandTracer) VH: QAYLQQSGAELVRPGASVKMSCKASGYTFPSYNMHWVKQTPRQGLEWIGAIYPGNGDTSYNQKFKGKASQTVDKSSSTVYMQLSSLTSADSAVYFCARSRLFDSSYGWYFDVWGTGTTVTVSS VL: QIVLSQSPAILSAYPGEKVTMTCRARSSVSYIDWYQQKAGSSPKPWIYATSNLASGVPARFSGSGSGTSYSLTISRVEAEDAATYYCQQWTSNPPTFGGGTKLEIK | 45700 |
